# Tgt: T1, SARS-CoV-2 spike glycoprotein S1+S2 extracellular domain (SARS-CoV-2, reference sequence, UniProt P0DTC2)
# T1 construct: also called full-length spike glycoprotein ectodomain
# Assay Summary: ELISA

Binder | OD450 / OD450
FM 1A (antibody, V domains shown, source: HEK293T, transfected; culture supernatant or purified) VH: EVQLLESGGGVVQPGRSLRLSCAASGFTFSSYGMHWVRQAPGKGLEWVAVIWYDGSNKYYADSVKGRFTISRDNSKNTLYLQMNSLRAEDTAVYYCAREGAVGATRGFDYWGQGTLVTVSS VL: SYELTQPPSVSVAPGQTARITCGGNNIGSKSVHWYQQKPGQAPVLVVYDDSDRPSGIPERFSGSNSGNTATLTISRVEAGDEADYYCQVWDSSSDQGVFGGGTKLTVL | 0.25
FJ 1C (antibody, V domains shown, source: HEK293T, transfected; culture supernatant or purified) VH: QVQLQESGPGLVKPSETLSLTCTVSGYSISSGYYWGWIRQPPGKGLEWIGSIYHSGSTYYNPSLKSRVTISVDTSKNQFSLKLSSVTAADTAVYYCARDKALLWFGELFTNLFDYWGQGTLVTVSS VL: QSALTQPASVSGSPGQSITISCTGTSSDVGGYNYVSWYQQHPGKAPKLMIYEVSNRPSGVSNRFSGSKSGNTASLTISGLQAEDEANYYCSSYTSSSTLVFGGGTKLTVL | 1.61
EW 9C (antibody, V domains shown, source: HEK293T, transfected; culture supernatant or purified) VH: EVQLVESGGGVVQPGASLRLSCVASGFTFNNFGFHWVRQAPGKGLEWLAVISYEGSKTYYAESLKGRFTISRDTSKNTVYLQMNSLRAEDTAVYYCARATSIFWFGEGRNWFDPWGQGTMVTVSS VL: EIVLTQSPGTVSLSAGERATLSCRASQNVGTDLAWYVQRPGQAPRLLIYDTSNKATGIPARFSGRGSGTDFTLTIDSLEPEDFAVYYCQQRSNWPLTFGGGTKVEIR | 1.22
FB 9D (antibody, V domains shown, source: HEK293T, transfected; culture supernatant or purified) VH: QVQLVESGAEVKKPGESLKISCQGSGYRFNSYWIAWVRQMPGKGLEWMGSIFPTDSDVRYNPSFQGQVTISADKSISFAYLQWSSLKASDTAIYYCARHWASMVRGVIRASHYYGMDVWGQGTTVTVSS VL: QPVLTQPPSASGSPGQSVTISCSGASSDIGKYNYVSWYQQLPGKAPKLLIYEVTKRPSGVPDRFSGSKSGNTASLTVSGLQADDEADYYCSSYAFGGSDTRVFGGGTKLTVL | 1.43
